assay_name: gradient 5% acetonitrile 3 min, to 50% in 2 min, to 85% in 15 min, held 3 min, 100 µL/min
settings: column: Zorbax Extend-C18 2.1 x 50 mm; eluents: water / acetonitrile, 0.1% formic acid
assay_readout: RP-LC retention time (s)

Some solved entries appear below for comparison.
Specify reported RP-LC retention time for the compound shown: `COc1ccc(-c2cn3c(CC(=O)Nc4ccc(C(F)(F)F)cc4)csc3n2)cc1`
869

Specify reported RP-LC retention time for the compound shown: `Cn1c(=O)n(C)c2cc(CNc3ccc(O)cc3)ccc21`
1190

Specify reported RP-LC retention time for the compound shown: `O=C1C=C(N2CCNCC2)C(=O)c2c(O)ccc(O)c21`
600

Specify reported RP-LC retention time for the compound shown: Cc1cccc(N2CCN(C(=O)C3CCCN(c4nc5ccccc5n5cccc45)C3)CC2)c1C (centres undefined)
977

Specify reported RP-LC retention time for the compound shown: `Cc1ccc(S(=O)(=O)Cc2ccc(C(=O)N3CCN(c4ccccn4)CC3)o2)cc1`
606

1 = Cc1cccc(-c2noc(Cc3nnc(-c4ccc(F)cc4)o3)n2)c1
2 = COc1cccc(CNC(=O)C2CCc3nc(N4CCCCC4)ncc3C2)c1 (centres undefined)
Exercise: compare 1 and 2 ; which one has the greater RP-LC retention time? Reply with the label of the item you choose.
1

a = CC(=O)c1ccc(NC(=O)C2CCCN(c3nc(C)nc4oc(C)c(C)c34)C2)cc1 (centres undefined)
b = CCOC(=O)N1CCC(NC(=O)C2CCCN(Cc3nc(-c4cccnc4)no3)C2)CC1 (centres undefined)
Lab note: check whether a or b has the lower measured RP-LC retention time. Reply with the label of the item you choose.
b

1 = CCOc1ccccc1N1CCN(Cc2nc(-c3ccc(N4CCCC4)nc3)no2)CC1
2 = Cc1cccc(-n2c(=O)c3sccc3n(Cc3nc(-c4ccccc4C)no3)c2=O)c1
Exercise: compare 1 and 2 ; which one has the greater RP-LC retention time? Reply with the label of the item you choose.
2

###

assay_name: gradient 5% acetonitrile 3 min, to 50% in 2 min, to 85% in 15 min, held 3 min, 100 µL/min
settings: column: Zorbax Extend-C18 2.1 x 50 mm; eluents: water / acetonitrile, 0.1% formic acid
assay_readout: RP-LC retention time (s)

Some solved entries appear below for comparison.
Specify reported RP-LC retention time for the molecule shown: `CCN(CC)c1ncnc2c(-c3ccccc3)cn(CC(=O)NC(C)C)c12`
686

Specify reported RP-LC retention time for the molecule shown: `CCN1C(=O)c2cccnc2Sc2cc(NC(=O)CCc3ccc(OC)cc3)ccc21`
855

Specify reported RP-LC retention time for the molecule shown: CCCCN(C)C(=O)C1CCCN(c2nnc(C)c3c(C)n(-c4ccc(Cl)cc4)nc23)C1 (stereo not given)
782

Specify reported RP-LC retention time for the molecule shown: `O=C(COc1ccccc1F)N1CCC(Oc2nc3ccccc3s2)CC1`
986

Specify reported RP-LC retention time for the molecule shown: O=C(NCC1CCCO1)C(=O)NCC(c1cccs1)S(=O)(=O)c1ccc(F)cc1 (stereo not given)
749

P = CCN1c2cc(C)ccc2-n2cccc2C12CCN(C(=O)NCC(=O)OC)CC2
Q = O=C(Cc1c(F)cccc1Cl)NCC(=O)N1CCN(c2ccccn2)CC1
Exercise: compare P and Q ; which one has the greater RP-LC retention time? Reply with the label of the item you choose.
P
(P: 895 s, Q: 605 s)

These measurements were taken from the METLIN SMRT retention time set (Domingo-Almenara et al. 2019).
